From: patent US20210380703A1

molecular target: T1, Goat anti-Human Kappa; experiment: ELISA; positive control; further: test concentration or dose not given here
T1 construct: Positive control; also called biotinylated goat anti-human kappa light chain

{"BINDER": "365_F05 (antibody, V domains shown, VH/VL only) VH: EVQLLESGGGLVQPGGSLRLSCAASGFTFSSYGMNWVRQAPGKGLEWVASINYNGGYTSYADSVKGRFTISRDNSKNTLYLQMNSLRAEDTAVYYCARGATWHDTHLDYWGQGTLVTVSS VL: DIQMTQSPSSLSASVGDRVTITCRASQSIVTYVNWYQQKPGKAPKLLIYAATSRASGVPSRFSGSGSGTDFTLTISSLQPEDFATYYCQQSYETPLTFGGGTKVEIK", "optical density [OD]": 3.42}
{"BINDER": "373_F07 (antibody, V domains shown, VH/VL only) VH: EVQLLESGGGLVQPGGSLRLSCAASGFTFSSYSMNWVRQAPGKGLEWVSGINYNSGYKSYADSVKGRFTISRDNSKNTLYLQMNSLRAEDTAVYYCARGATWHDTHLDYWGQGTLVTVSS VL: DIQMTQSPSSLSASVGDRVTITCRASQSILSYLNWYQQKPGKAPKLLIYAATSLASGVPSRFSGSGSGTDFTLTISSLQPEDFATYYCQQSYETPLTFGGGTKVEIK", "optical density [OD]": 3.13}
{"BINDER": "367_D05 (antibody, V domains shown, VH/VL only) VH: EVQLLESGGGLVQPGGSLRLSCAASGFTFSDYSMNWVRQAPGKGLEWVSSINYNGGYKSYADSVKGRFTISRDNSKNTLYLQMNSLRAEDTAVYYCARGATWHDTHLDYWGQGTLVTVSS VL: DIQMTQSPSSLSASVGDRVTITCRASQSIISYVNWYQQKPGKAPKLVIYAATSLASGVPSRFSGSGSGTDFTLTISSLQPEDFATYYCQQSYDSPLTFGGGTKVEIK", "optical density [OD]": 3.34}
{"BINDER": "371_E08 (antibody, V domains shown, VH/VL only) VH: EVQLLESGGGLVQPGGSLRLSCAASGFTFSSYSMNWVRQAPGKGLEWVSNINYNSGYKSYADSVKGRFTISRDNSKNTLYLQMNSLRAEDTAVYYCARGATWHDTHLDYWGQGTLVTVSS VL: DIQMTQSPSSLSASVGDRVTITCRASQSIVSYVNWYQQKPGKAPKLVIYAATSRHSGVPSRFSGSGSGTDFTLTISSLQPEDFATYYCQQSYDLPLTFGGGTKVEIK", "optical density [OD]": 2.64}
{"BINDER": "368_H11 (antibody, V domains shown, VH/VL only) VH: EVQLLESGGGLVQPGGSLRLSCAASGFTFDSYGMHWVRQAPGKGLEWVASINYNGGYTSYADSVKGRFTISRDNSKNTLYLQMNSLRAEDTAVYYCARGATWHDTHLDYWGQGTLVTVSS VL: DIQMTQSPSSLSASVGDRVTITCRASQSILSYLNWYQQKPGKAPKLLIYAATSRASGVPSRFSGSGSGTDFTLTISSLQPEDFATYYCQQSDDTPLTFGGGTKVEIK", "optical density [OD]": 3.51}
